Settings: in methanol, 298.15 K
readout.kind: solubility (mole fraction)
Provide a numeric answer; units are not to be included.

Value lookup for solubility (mole fraction); key = O=C(O)c1cccc(C(=O)O)c1
0.00376

====

Settings: in ethanol, 318.15 K
readout.kind: solubility (mole fraction)

Value lookup for solubility (mole fraction); key = O=C(O)c1cccc(C(=O)O)c1
0.00682

====

Settings: in methanol, 293.15 K
readout.kind: solubility (mole fraction)

Value lookup for solubility (mole fraction); key = O=C(O)c1cccc(C(=O)O)c1
0.00342

====

Settings: in ethanol, 288.15 K
readout.kind: solubility (mole fraction)
Provide a numeric answer; units are not to be included.

Value lookup for solubility (mole fraction); key = O=C(O)c1cccc(C(=O)O)c1
0.00369

====

Conditions: in methanol, 303.15 K
readout.kind: solubility (mole fraction)
Provide a numeric answer; units are not to be included.

Value lookup for solubility (mole fraction); key = O=C(O)c1cccc(C(=O)O)c1
0.00422

====

Details: in ethanol, 283.15 K
readout.kind: solubility (mole fraction)

Value lookup for solubility (mole fraction); key = O=C(O)c1cccc(C(=O)O)c1
0.00328

====

Details: in ethanol, 293.15 K
readout.kind: solubility (mole fraction)
Provide a numeric answer; units are not to be included.

Value lookup for solubility (mole fraction); key = O=C(O)c1cccc(C(=O)O)c1
0.00406

====

Settings: in n-propanol, 293.15 K
readout.kind: solubility (mole fraction)
Provide a numeric answer; units are not to be included.

Value lookup for solubility (mole fraction); key = O=C(O)c1cccc(C(=O)O)c1
0.00362

====

Details: in ethanol, 323.15 K
readout.kind: solubility (mole fraction)
Provide a numeric answer; units are not to be included.

Value lookup for solubility (mole fraction); key = O=C(O)c1cccc(C(=O)O)c1
0.00752

====

Settings: in methanol, 283.15 K
readout.kind: solubility (mole fraction)
Provide a numeric answer; units are not to be included.

Value lookup for solubility (mole fraction); key = O=C(O)c1cccc(C(=O)O)c1
0.00269

====

Settings: in methanol, 323.15 K
readout.kind: solubility (mole fraction)
Provide a numeric answer; units are not to be included.

Value lookup for solubility (mole fraction); key = O=C(O)c1cccc(C(=O)O)c1
0.00654

====

Details: in n-propanol, 303.15 K
readout.kind: solubility (mole fraction)
Provide a numeric answer; units are not to be included.

Value lookup for solubility (mole fraction); key = O=C(O)c1cccc(C(=O)O)c1
0.00472

====

Details: in n-propanol, 288.15 K
readout.kind: solubility (mole fraction)
Provide a numeric answer; units are not to be included.

Value lookup for solubility (mole fraction); key = O=C(O)c1cccc(C(=O)O)c1
0.0032

====

Settings: in n-propanol, 283.15 K
readout.kind: solubility (mole fraction)

Value lookup for solubility (mole fraction); key = O=C(O)c1cccc(C(=O)O)c1
0.00287

====

Details: in methanol, 288.15 K
readout.kind: solubility (mole fraction)
Provide a numeric answer; units are not to be included.

Value lookup for solubility (mole fraction); key = O=C(O)c1cccc(C(=O)O)c1
0.00304

====

Details: in n-propanol, 308.15 K
readout.kind: solubility (mole fraction)
Provide a numeric answer; units are not to be included.

Value lookup for solubility (mole fraction); key = O=C(O)c1cccc(C(=O)O)c1
0.00533

====

Settings: in methanol, 313.15 K
readout.kind: solubility (mole fraction)
Provide a numeric answer; units are not to be included.

Value lookup for solubility (mole fraction); key = O=C(O)c1cccc(C(=O)O)c1
0.00527
